test system: six V600E BRAF melanoma cell lines; assay: Screening of recombinant RTK ligands for ability to confer resistance to BRAFi (PLX4720) or MEKi (PD184352) (Table 4); type: cell-based, human; design: scale not given here; conditions: SK-MEL-5, PD184352 - 1 uM, ligand 1.6 ng/ml
parameter: ability of recombinant RTK ligand to confer resistance
Could you keep your reply to the number by itself?

# input molecule: GDNF (protein, UniProt P39905 78-211, looked up) Glial cell line-derived …: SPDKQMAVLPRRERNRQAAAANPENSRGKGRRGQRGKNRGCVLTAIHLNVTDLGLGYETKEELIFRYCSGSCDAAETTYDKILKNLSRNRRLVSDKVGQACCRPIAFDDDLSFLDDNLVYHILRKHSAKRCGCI ; wanted: its ability of recombinant RTK ligand to confer resistance 0.89

# input molecule: Ephrin-A4 (protein, UniProt P52798 26-170, looked up) Ephrin-A4: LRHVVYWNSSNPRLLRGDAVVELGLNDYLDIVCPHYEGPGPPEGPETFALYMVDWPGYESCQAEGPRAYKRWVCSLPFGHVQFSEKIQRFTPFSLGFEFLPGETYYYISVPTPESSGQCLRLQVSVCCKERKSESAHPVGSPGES ; wanted: its ability of recombinant RTK ligand to confer resistance 0.96

# input molecule: BDNF (protein, UniProt P23560 19-247, looked up) Neurotrophic factor BDNF …: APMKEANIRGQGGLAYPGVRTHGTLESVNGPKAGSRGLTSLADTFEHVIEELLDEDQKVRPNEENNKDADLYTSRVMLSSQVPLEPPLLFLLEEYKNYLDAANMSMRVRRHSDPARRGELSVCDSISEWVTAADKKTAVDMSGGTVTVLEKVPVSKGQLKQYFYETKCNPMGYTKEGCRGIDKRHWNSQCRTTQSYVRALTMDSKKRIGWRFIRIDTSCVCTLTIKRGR ; wanted: its ability of recombinant RTK ligand to confer resistance 0.97
